Entry source: PubChem BioAssay AID2060910

- Test system: 242566-281-R-J2-PDC complex spheroid viability
- Method Description: Anticancer human tumor 242566-281-R-J2-PDC patient-derived pancreatic carcinoma cell line growth inhibition [RAS]
- Measurement Parameters: second compound 0.0949 µM; first compound 0.316 µM; hits give low values
Assay Readout: viability, T/C (%)
Number only, in %; omit the unit.

Look over these answered cases.
Compound	Assay Readout	Reported
CC1(O)CCCC1n1c(=O)c(C(F)F)cc2cnc(NC3CCN(S(C)(=O)=O)CC3)nc21 (centres undefined) + CCn1c(-c2cccnc2C(C)OC)c2c3cc(ccc31)N1CCOC(CC(NC(=O)C(C(C)C)N(C)C(=O)C3(F)CCN(C(=O)C#CC(C)(C)N(C)C)CC3)C(=O)N3CCCC(N3)C(=O)OCC(C)(C)C2)C1	viability, T/C	69.6
NC1c2ccccc2OC12CCN(c1cnc3c(N4CCCc5ncccc54)n[nH]c3n1)CC2 (centres undefined) + CCn1c(-c2cccnc2C(C)OC)c2c3cc(ccc31)N1CCOC(CC(NC(=O)C(C(C)C)N(C)C(=O)C3(F)CCN(C(=O)C#CC(C)(C)N(C)C)CC3)C(=O)N3CCCC(N3)C(=O)OCC(C)(C)C2)C1	viability, T/C	62
O=C(c1ccc(F)c(F)c1Nc1ccc(I)cc1F)N1CC(O)([C@@H]2CCCCN2)C1 + CCn1c(-c2cc(N3CCN(C)CC3)cnc2C(C)OC)c2c3cc(ccc31)-c1csc(n1)CC(NC(=O)C1CC1C)C(=O)N1CCCC(N1)C(=O)OCC(C)(C)C2	viability, T/C	11.2

Next, consider the following compound.
Query: Reported viability, T/C, compound CC(C)NCC(C(=O)N1CCN(c2ncnc3c2C(C)CC3O)CC1)c1ccc(Cl)cc1 (centres undefined) + CCn1c(-c2cccnc2C(C)OC)c2c3cc(ccc31)N1CCOC(CC(NC(=O)C(C(C)C)N(C)C(=O)C3(F)CCN(C(=O)C#CC(C)(C)N(C)C)CC3)C(=O)N3CCCC(N3)C(=O)OCC(C)(C)C2)C1 : ____
Response: 104

====

- Tested on: 242566-281-R-J2-PDC complex spheroid viability
- Method Description: Anticancer human tumor 242566-281-R-J2-PDC cell line growth inhibition [RAS];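 note: spheroids exposed to compound for 7 days before readout; 100% = DMSO vehicle control wells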
- Measurement Parameters: second compound 0.1 µM; first compound 0.1 µM; hits give low values
Assay Readout: viability, T/C (%)
Number only, in %; omit the unit.

Compound	System Under Test	Units Of Measure	viability, T/C
CC(C)NCC(C(=O)N1CCN(c2ncnc3c2C(C)CC3O)CC1)c1ccc(Cl)cc1 (stereo unspecified) + C=CC(=O)N1CCN(c2nc(OCC3CCCN3C)nc3c(F)c(-c4nc(N)cc(C)c4C(F)(F)F)c(Cl)cc23)C(C)C1	242566-281-R-J2-PDC complex spheroid viability	%	104

Query: Reported viability, T/C, compound CCC(CC)c1cc(NC2CCC(N)C2)n2nccc2n1 (stereo unspecified) + C=CC(=O)N1CCN(c2nc(OCC3CCCN3C)nc3c(F)c(-c4nc(N)cc(C)c4C(F)(F)F)c(Cl)cc23)C(C)C1 : ____
Response: 129

====

- Tested on: 242566-281-R-J2-PDC complex spheroid viability
- Method Description: Anticancer human tumor 242566-281-R-J2-PDC cell line growth inhibition [RAS];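 note: spheroids exposed to compound for 7 days before readout; 100% = DMSO vehicle control wells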
- Measurement Parameters: second compound 0.00316 µM; first compound 0.1 µM; hits give low values
Known viability, T/C of a selection of compounds
Number only, in %; omit the unit.

Look over these answered cases.
Compound	viability, T/C / %
CC(C)n1nc(-c2ccc3oc(N)nc3c2)c2c(N)ncnc21 + C=CC(=O)N1CCN(c2nc(OCC3CCCN3C)nc3c(F)c(-c4nc(N)cc(C)c4C(F)(F)F)c(Cl)cc23)C(C)C1	53.8
CC1(O)CCCC1n1c(=O)c(C(F)F)cc2cnc(NC3CCN(S(C)(=O)=O)CC3)nc21 (stereo not drawn) + C=CC(=O)N1CCN(c2nc(OCC3CCCN3C)nc3c(F)c(-c4nc(N)cc(C)c4C(F)(F)F)c(Cl)cc23)C(C)C1	108

Query: Reported viability, T/C, compound C=CC(=O)Nc1cc(Nc2nccc(-c3cn(C)c4ccccc34)n2)c(OC)cc1N(C)CCN(C)C + C=CC(=O)N1CCN(c2nc(OCC3CCCN3C)nc3c(F)c(-c4nc(N)cc(C)c4C(F)(F)F)c(Cl)cc23)C(C)C1 : ____
Response: 74.5
